These entries and their values trace back to ChEMBL document CHEMBL1135742.

Listing of entries alongside the reported ID/g.
organism: Mus musculus; assay: Radioactivity uptake in the liver was expressed as a percentage of the injected radioactive dose per gram of tissue (% ID/g) in B16/F1 Murine Melanoma-Bearing C57 Mice at 24 h; assay type: functional, organism-based
Express your answer in %, writing the number without its unit.

* DOTA-ReCCEHdFRWCKPV-OH | 0.17
* DOTA-ReCCEHdFRWCKPVD-OH | 0.19
* DOTA-ReCCEHdFRWCRPV-NH2 | 0.32
* DOTA-ReCCEHdFRWCKPV-NH2 | 0.16

Turning to the following substance.
## Input Requested field: ID/g. Item: Ac-Lys(DOTA)-ReCCEHdFRWCKPV-NH2
## Output 0.28
